What pest or weed control at 20 ppm was measured for each of the following?
test system: Venturia inaequalis; assay: apple scab residual wash-off test; format: in vivo; conditions: 1/2 inch simulated rainfall, 10-12 days
The reply should be a number in %, with the unit left off.

// lookup pest or weed control at 20 ppm for O=C1CCCN1SN(c1cc(C(F)(F)F)ccc1Cl)c1c([N+](=O)[O-])cc([N+](=O)[O-])cc1C(F)(F)F
75

// lookup pest or weed control at 20 ppm for Cc1ccc(S(=O)(=O)N(C)SN(c2cc(C(F)(F)F)ccc2Cl)c2c([N+](=O)[O-])cc([N+](=O)[O-])cc2C(F)(F)F)cc1
100

// lookup pest or weed control at 20 ppm for Cc1ccc(S(=O)(=O)N(SN(c2cc(C(F)(F)F)ccc2Cl)c2c([N+](=O)[O-])cc([N+](=O)[O-])cc2C(F)(F)F)C(C)C)cc1
100

// lookup pest or weed control at 20 ppm for Cc1ccc(S(=O)(=O)N(C)SN(c2c(F)cc(F)cc2F)c2c([N+](=O)[O-])cc([N+](=O)[O-])cc2C(F)(F)F)cc1
100

// lookup pest or weed control at 20 ppm for CN(SN(c1cc(C(F)(F)F)ccc1Cl)c1c([N+](=O)[O-])cc([N+](=O)[O-])cc1C(F)(F)F)S(=O)(=O)c1ccc2ccccc2c1
100

// lookup pest or weed control at 20 ppm for CCCCN(SN(c1cc(C(F)(F)F)ccc1Cl)c1c([N+](=O)[O-])cc([N+](=O)[O-])cc1C(F)(F)F)S(=O)(=O)N(C)C
100

// lookup pest or weed control at 20 ppm for COC(=O)CN(SN(c1cc(C(F)(F)F)ccc1Cl)c1c([N+](=O)[O-])cc([N+](=O)[O-])cc1C(F)(F)F)S(=O)(=O)c1ccc(C)cc1
0

----------
test system: Puccinia graminis var. tritici; experiment: whole plant or invertebrate; type: in vivo; conditions: 192 h, read-out: % control wheat rust in a photostability test
recorded-endpoint: pest or weed control at 20 ppm
Provide the measurement as a number trailed by its unit.

For Puccinia graminis var. tritici, provide pest or weed control at 20 ppm of Cc1ccc(S(=O)(=O)N(C)SN(c2c(F)cc(F)cc2F)c2c([N+](=O)[O-])cc([N+](=O)[O-])cc2C(F)(F)F)cc1 please.
70%

For Puccinia graminis var. tritici, provide pest or weed control at 20 ppm of CCCCN(SN(c1cc(C(F)(F)F)ccc1Cl)c1c([N+](=O)[O-])cc([N+](=O)[O-])cc1C(F)(F)F)S(=O)(=O)N(C)C please.
80%

For Puccinia graminis var. tritici, provide pest or weed control at 20 ppm of COC(=O)CN(SN(c1cc(C(F)(F)F)ccc1Cl)c1c([N+](=O)[O-])cc([N+](=O)[O-])cc1C(F)(F)F)S(=O)(=O)c1ccc(C)cc1 please.
20%

----------
tested on: Pythium; experiment: Pythium infested soil test, cotton; format: in vivo; conditions: 1.5 kg/ha, 8 days
recorded-endpoint: % control Pythium (%)
The reply should be a number in %, with the unit left off.

// lookup % control Pythium for Cc1ccc(S(=O)(=O)N(C)SN(c2c(F)cc(F)cc2F)c2c([N+](=O)[O-])cc([N+](=O)[O-])cc2C(F)(F)F)cc1
100

// lookup % control Pythium for CCCCN(SN(c1cc(C(F)(F)F)ccc1Cl)c1c([N+](=O)[O-])cc([N+](=O)[O-])cc1C(F)(F)F)S(=O)(=O)N(C)C
0

// lookup % control Pythium for O=C1CCCN1SN(c1cc(C(F)(F)F)ccc1Cl)c1c([N+](=O)[O-])cc([N+](=O)[O-])cc1C(F)(F)F
50

// lookup % control Pythium for Cc1ccc(S(=O)(=O)N(C)SN(c2cc(C(F)(F)F)ccc2Cl)c2c([N+](=O)[O-])cc([N+](=O)[O-])cc2C(F)(F)F)cc1
0

// lookup % control Pythium for CN(SN(c1cc(C(F)(F)F)ccc1Cl)c1c([N+](=O)[O-])cc([N+](=O)[O-])cc1C(F)(F)F)S(=O)(=O)c1ccc2ccccc2c1
0

// lookup % control Pythium for COC(=O)CN(SN(c1cc(C(F)(F)F)ccc1Cl)c1c([N+](=O)[O-])cc([N+](=O)[O-])cc1C(F)(F)F)S(=O)(=O)c1ccc(C)cc1
50

// lookup % control Pythium for CCCCN(SN(c1cc(C(F)(F)F)ccc1Cl)c1c([N+](=O)[O-])cc([N+](=O)[O-])cc1C(F)(F)F)S(=O)(=O)c1ccc(C)cc1
0

----------
test system: Rhizoctonia solani; experiment: Rhizoctonia solani infested soil test, cotton; format: in vivo; details: 192 h, 1.5 kg/ha, 8 days
recorded-endpoint: pest or weed control at 1500 g/ha (%)
The reply should be a number in %, with the unit left off.

For Rhizoctonia solani, provide pest or weed control at 1500 g/ha of CCCCN(SN(c1cc(C(F)(F)F)ccc1Cl)c1c([N+](=O)[O-])cc([N+](=O)[O-])cc1C(F)(F)F)S(=O)(=O)c1ccc(C)cc1 please.
100

For Rhizoctonia solani, provide pest or weed control at 1500 g/ha of O=C1CCCN1SN(c1cc(C(F)(F)F)ccc1Cl)c1c([N+](=O)[O-])cc([N+](=O)[O-])cc1C(F)(F)F please.
90

For Rhizoctonia solani, provide pest or weed control at 1500 g/ha of Cc1ccc(S(=O)(=O)N(C)SN(c2c(F)cc(F)cc2F)c2c([N+](=O)[O-])cc([N+](=O)[O-])cc2C(F)(F)F)cc1 please.
70

For Rhizoctonia solani, provide pest or weed control at 1500 g/ha of CN(SN(c1cc(C(F)(F)F)ccc1Cl)c1c([N+](=O)[O-])cc([N+](=O)[O-])cc1C(F)(F)F)S(=O)(=O)c1ccc2ccccc2c1 please.
0

For Rhizoctonia solani, provide pest or weed control at 1500 g/ha of CCCCN(SN(c1cc(C(F)(F)F)ccc1Cl)c1c([N+](=O)[O-])cc([N+](=O)[O-])cc1C(F)(F)F)S(=O)(=O)c1ccccc1C please.
50

For Rhizoctonia solani, provide pest or weed control at 1500 g/ha of Cc1ccc(S(=O)(=O)N(C)SN(c2cc(C(F)(F)F)ccc2Cl)c2c([N+](=O)[O-])cc([N+](=O)[O-])cc2C(F)(F)F)cc1 please.
100

For Rhizoctonia solani, provide pest or weed control at 1500 g/ha of COC(=O)CN(SN(c1cc(C(F)(F)F)ccc1Cl)c1c([N+](=O)[O-])cc([N+](=O)[O-])cc1C(F)(F)F)S(=O)(=O)c1ccc(C)cc1 please.
50

For Rhizoctonia solani, provide pest or weed control at 1500 g/ha of CCCCN(SN(c1cc(C(F)(F)F)ccc1Cl)c1c([N+](=O)[O-])cc([N+](=O)[O-])cc1C(F)(F)F)S(=O)(=O)N(C)C please.
0

----------
tested on: Venturia inaequalis; test: apple scab residual wash-off test; assay type: in vivo; conditions: 1/2 inch simulated rainfall, 10-12 days
recorded-endpoint: pest or weed control at 20 ppm (%)
The reply should be a number in %, with the unit left off.

For Venturia inaequalis, provide pest or weed control at 20 ppm of CCCCN(SN(c1cc(C(F)(F)F)ccc1Cl)c1c([N+](=O)[O-])cc([N+](=O)[O-])cc1C(F)(F)F)S(=O)(=O)c1ccccc1C please.
100

For Venturia inaequalis, provide pest or weed control at 20 ppm of CCCCN(SN(c1cc(C(F)(F)F)ccc1Cl)c1c([N+](=O)[O-])cc([N+](=O)[O-])cc1C(F)(F)F)S(=O)(=O)c1ccc(C)cc1 please.
100

For Venturia inaequalis, provide pest or weed control at 20 ppm of CCCCN(SN(c1cc(C(F)(F)F)ccc1Cl)c1c([N+](=O)[O-])cc([N+](=O)[O-])cc1C(F)(F)F)S(=O)(=O)c1ccccc1 please.
100

Data credit: patent US4309425A
